Tested on: 186277-243-T-J2-PDC complex spheroids, viability;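 further: spheroids exposed to compounds for 7 days before viability read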
Assay: Anticancer human tumor 186277-243-T-J2-PDC patient-derived colon adenocarcinoma cell line growth inhibition [RAS]
Conditions: curve of first compound; second compound 0.316 µM
pIC50: −log10 of the molar value.
measureName: pIC50

Consider the reported pIC50 for these compounds:
[in] Fill in reported pIC50 for this entry: CC(C)n1nc(-c2ccc3oc(N)nc3c2)c2c(N)ncnc21 + C#Cc1c(F)ccc2cc(O)cc(-c3ncc4c(N5CC6CCC(C5)N6)nc(OCC56CCCN5CC(F)C6)nc4c3F)c12
[out] > 9.50

[in] Fill in reported pIC50 for this entry: CCN1CCN(Cc2ccc(Nc3ncc(F)c(-c4cc(F)c5nc(C)n(C(C)C)c5c4)n3)nc2)CC1 + C#Cc1c(F)ccc2cc(O)cc(-c3ncc4c(N5CC6CCC(C5)N6)nc(OCC56CCCN5CC(F)C6)nc4c3F)c12
[out] > 8.50

[in] Fill in reported pIC50 for this entry: O=C(c1ccc(F)c(F)c1Nc1ccc(I)cc1F)N1CC(O)([C@@H]2CCCCN2)C1 + C=CC(=O)N1CCN(c2nc(OCC3CCCN3C)nc3c(F)c(-c4nc(N)cc(C)c4C(F)(F)F)c(Cl)cc23)C(C)C1
[out] 7.13

[in] Fill in reported pIC50 for this entry: CC(Nc1ccc2c(c1)OCCn1cc(N3C(=O)OCC3C(F)F)nc1-2)C(N)=O (stereo not given) + C#Cc1c(F)ccc2cc(O)cc(-c3ncc4c(N5CC6CCC(C5)N6)nc(OCC56CCCN5CC(F)C6)nc4c3F)c12
[out] > 7.50

Would you kindly look at the next entry?
[in] Fill in reported pIC50 for this entry: CC1(C)CCC(Nc2ncc(C(F)(F)F)c(-c3c[nH]c4c(P(C)(C)=O)c(C#N)ccc34)n2)CN1 (stereo not given) + C=CC(=O)N1CCN(c2nc(OCC3CCCN3C)nc3c(F)c(-c4nc(N)cc(C)c4C(F)(F)F)c(Cl)cc23)C(C)C1
[out] < 6.52
